Cited source for all entries: patent US20240279218A1

Overview of recorded Fold increase h-GABA-A α5β3γ2 oocyte for various compounds
# target.of.assay: h-GABA-A α5β3γ2 (Homo sapiens (Human), UniProt P18507+P31644)
# protocol: Two-electrode voltage clamp electrophysiology in Xenopus oocytes expressing GABAA receptors, modulation of GABA EC20 current
# Format: cell-based
# measurement.context: Xenopus oocytes, GABA EC20, test compound at approx. 30 fold its Ki
Write no unit; give the number alone.

The cases that follow already have their Fold increase h-GABA-A α5β3γ2 oocyte on record.
1. Cc1ccc(-c2noc(C)c2COc2ccc(C(=O)N[C@]3(C)CCOC3)nn2)cn1 (single isomer, unassigned)	2.01
2. Cc1ccc(-c2noc(CF)c2COc2ccc(C(=O)NC3(C(F)(F)F)CC3)nn2)cn1	1.96
3. Cc1ccc(-c2noc(C)c2COc2ccc(C(=O)NC(C)(C)CCO)nn2)cn1	1.96

// switching to the query compound
Which Fold increase h-GABA-A α5β3γ2 oocyte value is on record for Cc1ccc(-c2noc(C)c2COc2ccc(C(=O)N[C@@H]3CCS(=O)(=O)C3)cn2)cn1 ?
1.95

====

Overview of recorded Fold increase h-GABA-A α5β3γ2 oocyte for various molecules
# target.of.assay: h-GABA-A α5β3γ2 (Homo sapiens (Human), UniProt P18507+P31644)
# protocol: Two-electrode voltage clamp electrophysiology in Xenopus oocytes expressing GABAA receptors, modulation of GABA EC20 current
# Format: cell-based
# measurement.context: Xenopus oocytes, GABA EC20, test compound at approx. 30 fold its Ki
Write no unit; give the number alone.

The cases that follow already have their Fold increase h-GABA-A α5β3γ2 oocyte on record.
1) CO[C@H]1C[C@@H](NC(=O)c2ccc(OCc3c(-c4ccc(C)nc4)noc3C)nn2)C1	1.95
2) CO[C@@H]1CC[C@@H](NC(=O)c2ccc(OCc3c(-c4ccc(C)nc4)noc3C)nn2)C1 (racemic)	1.7
3) Cc1ccc(-c2noc(C)c2COc2ccc(C(=O)N3CC(C#N)C3)nn2)cn1	1.54
4) Cc1ccc(-c2noc(C)c2COc2ccc(C(=O)N3C4COCC3C4)nn2)cn1	1.76
5) Cc1ccc(-c2noc(C)c2COc2ccc(C(=O)N[C@H]3CC[C@@](C)(O)CC3)nn2)cn1	1.77

Which Fold increase h-GABA-A α5β3γ2 oocyte value is on record for CCC[C@@H](CO)NC(=O)c1ccc(OCc2c(-c3ccc(C4CC4)nc3)noc2C)nc1 ?
2.56

Which Fold increase h-GABA-A α5β3γ2 oocyte value is on record for Cc1ccc(-c2noc(C)c2COc2ccc(C(=O)N[C@H]3C[C@@H](OCC(F)F)C3)nn2)cn1 ?
1.66

Which Fold increase h-GABA-A α5β3γ2 oocyte value is on record for CCC[C@@H](CO)NC(=O)c1ccc(OCc2c(-c3ccc(C)nc3)noc2C)nc1 ?
2.5

====

# target.of.assay: h-GABA-A α5β3γ2 (Homo sapiens (Human), UniProt P18507+P31644)
# protocol: Two-electrode voltage clamp electrophysiology in Xenopus oocytes expressing GABAA receptors, modulation of GABA EC20 current
# Format: cell-based
# measurement.context: % modulation of GABA EC20 = 100*(Fold increase−1), Xenopus oocytes
value.kind: Efficacy (GABA) % (%)
Quick reminder: number only, in %, skip the unit.

1. CO[C@@H]1CC[C@@H](NC(=O)c2ccc(OCc3c(-c4ccc(C)nc4)noc3C)nn2)C1 (racemic)	70
2. CCOC(=O)C1(NC(=O)c2ccc(OCc3c(-c4ccc(C)nc4)noc3C)nn2)CC1	72

Which Efficacy (GABA) % value is on record for Cc1ccc(-c2noc(C)c2COc2ccc(C(=O)NCC3COC3)nn2)cn1 ?
72

====

# target.of.assay: h-GABA-A α5β3γ2 (Homo sapiens (Human), UniProt P18507+P31644)
# protocol: [3H]flumazenil competition binding assay, membranes of HEK293 cells expressing human GABAA receptors
# measurement.context: displacement of [3H]flumazenil 0.5 nM, HEK293 cells expressing human receptors, mean of two determinations; read-out: Ki h-GABA-A α5β3γ2
value.kind: pKi
Quick note: pKi values are minus log10 of concentrations in mol/L.

Which pKi value is on record for Cc1ccc(-c2noc(C)c2COc2cnc(C(=O)NC3CCS(=O)(=O)C3)cn2)cn1 (stereo not shown) [Example 94] ?
8.00

Which pKi value is on record for Cc1ccc(-c2noc(C)c2COc2ccc(C(=O)N3CCC(F)(F)CC3)nn2)cn1 [Example 53] ?
7.02

Which pKi value is on record for Cc1ccc(-c2noc(C)c2COc2ccc(C(=O)NC3(C)CCCC3)nn2)cn1 [Example 114] ?
7.55

Which pKi value is on record for CCC[C@@H](CO)NC(=O)c1ccc(OCc2c(-c3ccc(C)nn3)noc2C)nc1 [Example 109] ?
9.10

Which pKi value is on record for COCC1(NC(=O)c2ccc(OCc3c(-c4ccc(C)nc4)noc3C)nn2)CC1 [Example 54] ?
7.70

====

Overview of recorded Efficacy (GABA) % for various compounds
# target.of.assay: h-GABA-A α5β3γ2 (Homo sapiens (Human), UniProt P18507+P31644)
# protocol: Two-electrode voltage clamp electrophysiology in Xenopus oocytes expressing GABAA receptors, modulation of GABA EC20 current
# Assay type: cell-based
# measurement.context: % modulation of GABA EC20 = 100*(Fold increase−1), Xenopus oocytes
Quick reminder: number only, in %, skip the unit.

The cases that follow already have their Efficacy (GABA) % on record.
1. Cc1ccc(-c2noc(C)c2COc2cnc(C(=O)NCC(F)(F)F)cn2)cn1	42
2. Cc1ccc(-c2noc(C)c2COc2ccc(C(=O)N[C@H]3CC[C@H](OCC(F)F)CC3)nn2)cn1	84
3. Cc1ccc(-c2noc(C)c2COc2cnc(C(=O)N3CC4(C3)CS(=O)(=O)C4)cn2)cn1	28

Recall the recorded Efficacy (GABA) % for Cc1onc(-c2ccc(C3CC3)nc2)c1COc1ccc(C(=O)NC2CCS(=O)(=O)CC2)cn1 with h-GABA-A α5β3γ2 (Homo sapiens (Human), UniProt P18507+P31644) and state it.
128

Recall the recorded Efficacy (GABA) % for Cc1ccc(-c2noc(C)c2COc2ccc(C(=O)N3CCC(F)(F)CC3)nn2)cn1 with h-GABA-A α5β3γ2 (Homo sapiens (Human), UniProt P18507+P31644) and state it.
80

Recall the recorded Efficacy (GABA) % for Cc1ccc(-c2noc(C)c2COc2ccc(C(=O)N[C@H]3CCS(=O)(=O)C3)cn2)cn1 with h-GABA-A α5β3γ2 (Homo sapiens (Human), UniProt P18507+P31644) and state it.
77

====

Overview of recorded Fold increase h-GABA-A α5β3γ2 oocyte for various compounds
# target.of.assay: h-GABA-A α5β3γ2 (Homo sapiens (Human), UniProt P18507+P31644)
# protocol: Two-electrode voltage clamp electrophysiology in Xenopus oocytes expressing GABAA receptors, modulation of GABA EC20 current
# Type: cell-based
# measurement.context: Xenopus oocytes, GABA EC20, test compound at approx. 30 fold its Ki

The cases that follow already have their Fold increase h-GABA-A α5β3γ2 oocyte on record.
1. Cc1ccc(-c2noc(C)c2COc2ccc(C(=O)N[C@@H]3CCOC[C@@H]3C)nn2)cn1	1.67
2. Cc1ccc(-c2noc(C)c2COc2ccc(C(=O)NC3CCOCC3)nn2)nn1	1.64
3. CCC[C@@H](CO)NC(=O)c1ccc(OCc2c(-c3ccc(N(C)C)nc3)noc2C)nc1	3.43

Recall the recorded Fold increase h-GABA-A α5β3γ2 oocyte for Cc1ccc(-c2noc(C)c2COc2ccc(C(=O)NCCC#N)nn2)cn1 with h-GABA-A α5β3γ2 (Homo sapiens (Human), UniProt P18507+P31644) and state it.
1.76

Recall the recorded Fold increase h-GABA-A α5β3γ2 oocyte for Cc1ccc(-c2noc(C)c2COc2ccc(C(=O)NC3CCS(=O)(=O)CC3)nn2)cn1 with h-GABA-A α5β3γ2 (Homo sapiens (Human), UniProt P18507+P31644) and state it.
1.94

Recall the recorded Fold increase h-GABA-A α5β3γ2 oocyte for Cc1ccc(-c2noc(C)c2COc2ccc(C(=O)NC(C)(C)CO)nn2)cn1 with h-GABA-A α5β3γ2 (Homo sapiens (Human), UniProt P18507+P31644) and state it.
1.79

Recall the recorded Fold increase h-GABA-A α5β3γ2 oocyte for Cc1ccc(-c2noc(C)c2COc2ccc(C(=O)NCC3CC3)cn2)cn1 with h-GABA-A α5β3γ2 (Homo sapiens (Human), UniProt P18507+P31644) and state it.
1.63

Recall the recorded Fold increase h-GABA-A α5β3γ2 oocyte for Cc1ccc(-c2noc(C)c2COc2cnc(C(=O)NC3COC3)cn2)cn1 with h-GABA-A α5β3γ2 (Homo sapiens (Human), UniProt P18507+P31644) and state it.
1.11

Recall the recorded Fold increase h-GABA-A α5β3γ2 oocyte for Cc1ncc(-c2noc(C)c2COc2ccc(C(=O)NC(C)C)cn2)cc1F with h-GABA-A α5β3γ2 (Homo sapiens (Human), UniProt P18507+P31644) and state it.
1.15

Recall the recorded Fold increase h-GABA-A α5β3γ2 oocyte for Cc1ccc(-c2noc(C(F)F)c2COc2ccc(C(=O)NC3CCOCC3)cn2)cn1 with h-GABA-A α5β3γ2 (Homo sapiens (Human), UniProt P18507+P31644) and state it.
1.49
